Source of measurements: PubChem BioAssay

test_details: reversal of MRP1-mediated doxorubicin resistance, pilot screen, H69AR cells, doxorubicin co-treatment (AID 601)
assay_setup: H69AR cells + 2 uM doxorubicin, CellTiter-Glo, 72 h; at 10 µM; stronger effect = higher value
observed_property: differential viability (reversal) (%)
One number for each entry, in %.

Before answering, review these 5 worked examples.
[[record]]
compound = "Cc1cc(C)c2c(n1)nn1c(C3CC3)cc(C(F)(F)F)nc21"
unit_spec = "%"
observed_measurement = -4.02

[[record]]
compound = "CCOc1ccc2nc(SCC#N)c(C#N)cc2c1"
unit_spec = "%"
observed_measurement = 16.1

[[record]]
compound = "COC(=O)c1sc(S(=O)(=O)NCc2cccs2)c(C(=O)OC)c1C"
unit_spec = "%"
observed_measurement = 7.38

[[record]]
compound = "CN(Cc1ccccc1)C(=O)CNC(=O)Cn1cnc2ccccc2c1=O"
unit_spec = "%"
observed_measurement = 9.23

[[record]]
compound = "CCOc1nc2ccccc2nc1NS(=O)(=O)c1ccccc1"
unit_spec = "%"
observed_measurement = 0.49


// batch mode: one differential viability (reversal) value per listed entry
1. CC1CCN(C(=O)CN2C(=O)C(C)(C)Oc3ccc(C(=O)NC4CCCC4)cc32)CC1
2. O=C(c1ccco1)N1CCN(c2cccc(Cl)c2)CC1
3. COC(=O)c1cc(Br)c(=O)n(-c2nccs2)c1
4. COc1cc(Br)cc(CN2CCN(C/C=C/c3ccccc3)CC2)c1O

### Response
1. 4.5
2. 5.25
3. 9.32
4. 7.21

Give differential viability (reversal) for each of the items listed below.
1. C=CCn1c(SCc2ccc(C#N)cc2)nnc1-c1cccc(Cl)c1
2. CCOC(=O)c1ccc(Oc2cc(C)nc(SC)n2)cc1
3. CCC(NC(C)C)C(O)c1ccc(O)c2[nH]c(=O)ccc12 (stereo unspecified)
4. OCCOCCN1CCN(C(c2ccccc2)c2ccc(Cl)cc2)CC1 (stereo unspecified)
5. Nc1nnc(-c2cccc(Cl)c2Cl)c(N)n1
6. CC(=O)Nc1ccc(S(=O)(=O)N2CCC(NC(C)=O)(c3cccc(F)c3)CC2)cc1

### Response
[-3.84, -52, 11.7, 9.31, 3.66, 13]

# return differential viability (reversal) for each item in the list
1. CC1CCc2c(sc(N)c2C(N)=O)C1 (stereo unspecified)
2. Cn1nc(C(=O)Nc2cccc(C(F)(F)F)c2)ccc1=O
3. CCOC(=O)c1sc(=NC(=O)c2ccc(OC)c(OC)c2)n(C)c1C
4. c1ccc2c(c1)CNC1(CCCCC1)C2
5. CC1CCN(C(=O)CSc2nnc(-c3ccc(S(=O)(=O)N4CCOCC4)cc3)n2C)CC1
6. Cc1ccc(-c2noc(CCC(=O)N3CCN(c4cccc(C(F)(F)F)c4)CC3)n2)cc1

### Response
6.62
6.87
-6.65
12.9
-4.8
-3.76

----------
test_details: reversal of MRP1-mediated doxorubicin resistance, pilot screen, H69AR cells, doxorubicin co-treatment (AID 601)
assay_setup: H69AR cells, CellTiter-Glo, 72 h; compound alone cytotoxicity; at 10 µM
Could you please report measured viability for the items listed next?
Give bare numbers, in %.

# example entries with known answers
[[record]]
compound = "COc1ccc(C2CC(C(F)(F)F)n3ncc(C(=O)NCc4cccnc4)c3N2)cc1OC (configuration not stated)"
observed_measurement = 91.1

[[record]]
compound = "Cc1nc2c(o1)CCc1ccccc1C2O (configuration not stated)"
observed_measurement = 94.4

[[record]]
compound = "S=c1[nH]nc(-c2cccc(Br)c2)o1"
observed_measurement = 96.1


I need viability for every entry listed below, if you could help.
1. COc1ccc(/C=N/n2c(=O)[nH]c3c([nH]c4ccc(C)cc43)c2=O)cc1CN1CCOCC1
2. COCCNC(=O)c1cc2c(-c3ccccc3F)nn(C)c2s1
3. O=S(=O)(Nc1ccccn1)c1ccc(Oc2ccccc2)cc1
4. O=C(CCCC(=O)N(CC(=O)NC1CCCCC1)Cc1ccc2c(c1)OCO2)Nc1ccccn1
5. O=C(CCCn1ncn2c(cc3occc32)c1=O)N1CCc2ccccc2C1
6. Cc1nc(NCc2ccco2)c2oc3ccccc3c2n1

### Response
1: 84.6; 2: 93.9; 3: 98.8; 4: 92.3; 5: 84.7; 6: 80.6

Provide viability for all items below, preserving their order.
1. CCOC(=O)c1ccc(NC(=O)CSCc2ccco2)cc1
2. COc1ccc2cc(C#N)c(NC(C)C)nc2c1
3. Cc1cc(C)cc(OCCCC(=O)O)c1
4. O=C(CSc1nc(-c2ccccc2)cs1)NCc1ccco1
5. CCc1cc(=O)oc2c(CN3CCN(C)CC3)c(O)c(Cl)cc12

### Response
1: 87.7; 2: 75.4; 3: 95.3; 4: 94.8; 5: 98.4

Okay, here is my list. What is viability for each of these?
1. Cc1cc(C)c2c(C)nn(C3CCCCC3)c2n1
2. Cc1cccc(CCNC(=O)CCc2nc(-c3ccccc3F)no2)c1
3. O=C(Nc1ncc(Br)s1)C1CCCN1S(=O)(=O)c1cccc2cccnc12 (configuration not stated)
4. Cc1nc2ccc(NC(=O)N3CCC(c4ccccc4)C3)cc2nc1C (configuration not stated)
5. O=C(CS(=O)CC(=O)Nc1cccc2c1CCCC2)Nc1ccc(F)cc1 (configuration not stated)

### Response
1: 95.5; 2: 93.5; 3: 29.8; 4: 74.8; 5: 102

----------
test_details: viability gain of MRP-1-high H69AR cells under doxorubicin, pilot screen, MRP-1 activator project, CellTiter-Glo, duplicate (AID 807);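 further: compound pretreatment 18-22 h then 72 h combined with doxorubicin; 0% = doxorubicin alone and 100% = vehicle without doxorubicin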
assay_setup: H69AR viability with doxorubicin, CellTiter-Glo luminescence; at 10 µM; stronger effect = higher value
observed_property: viability increase (%)
Numbers only, in %.

Return reported viability increase values for all items listed beneath this line.
1. Cc1cccc(OCc2nnc(SCC(=O)Nc3ccc(C)c(C)c3)o2)c1
2. COc1ccc(CCNS(=O)(=O)c2ccc3c(c2)OCCO3)cc1OC
3. Clc1ccccc1C1CC(c2ccccc2)Nc2ncnn21 (stereo unspecified)
4. COCCNC(=O)Cn1cnc2c1c(=O)n(C)c(=O)n2C
5. COc1ccc(N2CCN(CCNC(=O)CCNS(=O)(=O)c3cccs3)CC2)cc1
6. Cn1c(Cn2c(=O)sc3ccccc32)nnc1SCC(=O)NCc1ccccc1Cl

### Response
[-2.67, -1.53, -1.24, -0.95, -0.82, -1.32]

For every listed record, write down its viability increase.
1. CCc1ccccc1NC(=O)c1cc(-c2cccc(O)c2)on1
2. COc1ccc(C(=O)OCCN2C(=O)c3ccccc3C2=O)cc1OC
3. Cc1nc(CNS(=O)(=O)c2ccccc2F)cs1
4. CCOC(=O)N1CCN(C2CC(=O)N(c3ccccc3)C2=O)CC1 (stereo unspecified)

### Response
1: -1.49; 2: -1.79; 3: -0.6; 4: 0.58

----------
test_details: SK-BR-3 cell growth inhibitors, pilot screen, 24 h, human (AID 572);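 further: compound exposure lasted between 18 and 24 h rather than exactly 24 h; 100% = carrier-treated control wells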
assay_setup: SK-BR-3 viability, CellTiter-Glo luminescence, at 10 µM, stronger effect = lower value
Task for the reader: assign each of the following molecules its reported viability.
One number for each entry, in %.

[[record]]
molecule = "CC(C)Cn1c(N)c(C(=O)COC(=O)c2ccc3c(c2)OCCO3)c(=O)n(C)c1=O"
unit_spec = "%"
observed_measurement = 87

[[record]]
molecule = "CCOC(=O)c1ccc(NC(=O)CCNc2c(N3CCCC3)c(=O)c2=O)cc1"
unit_spec = "%"
observed_measurement = 104

[[record]]
molecule = "Cc1nc2ccccc2c2c1C(=O)N(CCC1=CCCCC1)C2=O"
unit_spec = "%"
observed_measurement = 83.5


Parameters: items (list). Returns: viability for each item.
1. CCOC(=O)c1c(C)[nH]c(C=Nc2ccccc2)c1O
2. COc1ccc(C2CC(=O)c3c(C)nc(N4CCN(c5ccccc5)CC4)nc3C2)cc1 (stereo not given)

### Response
[94, 90]

----------
Give measured Her2 level for each item. Keep answers brief.
system: Receptor tyrosine-protein kinase erbB-2 (Homo sapiens) (UniProt P04626)
Sequence (P04626 whole entry, looked up): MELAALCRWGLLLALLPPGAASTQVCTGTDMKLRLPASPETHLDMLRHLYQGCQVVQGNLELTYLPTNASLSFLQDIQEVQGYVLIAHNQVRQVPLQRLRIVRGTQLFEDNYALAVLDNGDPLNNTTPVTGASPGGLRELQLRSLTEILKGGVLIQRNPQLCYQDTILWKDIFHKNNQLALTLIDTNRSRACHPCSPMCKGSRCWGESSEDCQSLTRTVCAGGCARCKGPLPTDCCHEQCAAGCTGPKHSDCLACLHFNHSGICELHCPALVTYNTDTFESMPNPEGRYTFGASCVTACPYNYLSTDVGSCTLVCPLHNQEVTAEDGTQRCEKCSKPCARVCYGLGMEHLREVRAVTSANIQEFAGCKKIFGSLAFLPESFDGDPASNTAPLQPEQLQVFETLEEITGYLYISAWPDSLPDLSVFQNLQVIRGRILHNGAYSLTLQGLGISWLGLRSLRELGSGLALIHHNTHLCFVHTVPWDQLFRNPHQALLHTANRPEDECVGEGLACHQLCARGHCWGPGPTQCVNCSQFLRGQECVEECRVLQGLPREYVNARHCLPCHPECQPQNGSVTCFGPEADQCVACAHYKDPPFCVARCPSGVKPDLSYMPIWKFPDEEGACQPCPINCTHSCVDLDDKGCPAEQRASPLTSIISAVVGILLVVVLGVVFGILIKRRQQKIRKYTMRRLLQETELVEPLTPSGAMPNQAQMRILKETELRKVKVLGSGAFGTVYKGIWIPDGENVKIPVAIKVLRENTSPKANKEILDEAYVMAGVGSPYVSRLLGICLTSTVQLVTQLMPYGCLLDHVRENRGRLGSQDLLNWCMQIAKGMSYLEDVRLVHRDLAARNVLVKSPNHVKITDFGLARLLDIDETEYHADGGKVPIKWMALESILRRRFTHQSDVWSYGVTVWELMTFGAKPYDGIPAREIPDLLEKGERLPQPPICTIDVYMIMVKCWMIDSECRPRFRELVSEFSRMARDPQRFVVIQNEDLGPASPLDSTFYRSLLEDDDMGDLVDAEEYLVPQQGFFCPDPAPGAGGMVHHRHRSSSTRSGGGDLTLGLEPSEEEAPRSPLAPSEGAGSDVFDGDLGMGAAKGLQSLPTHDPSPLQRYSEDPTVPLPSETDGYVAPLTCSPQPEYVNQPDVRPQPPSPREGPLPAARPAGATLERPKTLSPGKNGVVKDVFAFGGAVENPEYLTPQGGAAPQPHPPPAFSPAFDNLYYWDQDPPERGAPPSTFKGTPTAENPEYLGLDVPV
test_details: reducers of endogenous Her2 protein level, primary screen, SKBR3 breast tumor cells, AlphaScreen, ATP viability (AID 461);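 further: lower value means less Her2 protein in the cells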
assay_setup: 18-24 h, at 10 µM, stronger effect = lower value
Give bare numbers, in %.

Sample records with Her2 level:
[[record]]
compound = "N#CCCNCC1(c2ccccc2)CCCC1"
observed_property = "Her2 level"
unit_spec = "%"
observed_measurement = 94

[[record]]
compound = "Nc1nc2sc3c(c2c(=O)s1)CCCC3"
observed_property = "Her2 level"
unit_spec = "%"
observed_measurement = 108

[[record]]
compound = "Cc1nc2sc(C(c3ccco3)N3CCN(c4ccccc4F)CC3)c(O)n2n1 (stereo not given)"
observed_property = "Her2 level"
unit_spec = "%"
observed_measurement = 85


Give Her2 level for each of the items listed below.
1. CCOc1ccc(NC(=O)c2ccc3c(c2)N(Cc2ccc(F)cc2)C(=O)CS3=O)cc1 (stereo not given)
2. CC(C)CCn1c(=O)c2ccccc2n2c(CN(C)Cc3ccccc3)nnc12
3. Nc1cc(-c2ccc(Br)cc2)nn1S(=O)(=O)c1ccccc1
4. CN(C)S(=O)(=O)c1ccc(/C(O)=C2/C(=O)C(=O)N(CCN3CCCCC3)C2c2cccnc2)cc1 (stereo not given)
5. Cc1nc2ccccc2cc1O
6. CCOc1ccc(-c2nnn(CCC(=O)O)n2)cc1OC

### Response
1. 81.5
2. 100
3. 108
4. 166
5. 104
6. 84
